Source of measurements: paper PMC4336329

Biological target: human ether-à-go-go-related gene (hERG) potassium channel (human);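 further: peak tail current of the secondary pulse compared with the same well before compound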
Sequence (Q12809 whole entry, looked up): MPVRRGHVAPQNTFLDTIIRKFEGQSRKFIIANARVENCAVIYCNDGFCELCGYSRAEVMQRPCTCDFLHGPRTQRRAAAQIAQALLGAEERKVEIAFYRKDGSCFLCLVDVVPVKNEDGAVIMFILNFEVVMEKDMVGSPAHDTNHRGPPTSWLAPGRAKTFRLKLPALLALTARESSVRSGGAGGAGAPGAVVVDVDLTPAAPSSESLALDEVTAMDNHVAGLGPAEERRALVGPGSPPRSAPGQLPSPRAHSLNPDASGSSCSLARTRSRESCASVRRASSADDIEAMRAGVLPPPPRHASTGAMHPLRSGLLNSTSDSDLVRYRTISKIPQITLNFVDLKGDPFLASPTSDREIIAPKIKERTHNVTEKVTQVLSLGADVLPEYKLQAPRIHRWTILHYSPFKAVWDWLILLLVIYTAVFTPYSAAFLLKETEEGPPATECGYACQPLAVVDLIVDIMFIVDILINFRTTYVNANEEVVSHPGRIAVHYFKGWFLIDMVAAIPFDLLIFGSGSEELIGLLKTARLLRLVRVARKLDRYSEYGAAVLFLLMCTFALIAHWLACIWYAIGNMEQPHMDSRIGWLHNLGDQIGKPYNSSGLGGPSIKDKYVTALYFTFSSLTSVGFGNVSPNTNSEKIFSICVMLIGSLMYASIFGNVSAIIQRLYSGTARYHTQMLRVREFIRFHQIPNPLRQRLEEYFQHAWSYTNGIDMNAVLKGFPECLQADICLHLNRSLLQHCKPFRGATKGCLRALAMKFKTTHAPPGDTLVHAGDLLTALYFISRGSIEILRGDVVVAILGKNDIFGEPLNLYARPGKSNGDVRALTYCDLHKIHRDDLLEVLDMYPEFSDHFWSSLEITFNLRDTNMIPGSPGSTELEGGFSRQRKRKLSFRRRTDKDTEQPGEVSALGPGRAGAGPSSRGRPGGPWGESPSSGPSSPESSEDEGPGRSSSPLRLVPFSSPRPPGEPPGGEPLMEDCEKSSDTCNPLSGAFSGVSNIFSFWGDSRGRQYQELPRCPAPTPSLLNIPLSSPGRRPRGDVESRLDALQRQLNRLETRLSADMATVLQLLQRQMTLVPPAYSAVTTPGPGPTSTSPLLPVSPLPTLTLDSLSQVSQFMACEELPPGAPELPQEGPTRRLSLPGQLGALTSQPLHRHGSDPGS
Assay: primary screen, population patch clamp on CHO cells stably expressing hERG; higher = less effect of the substance
The campaign covered roughly 310,000 compounds. About 14,000 (4.5%) showed an effect of 50% or more. The effect is printed as a negative number. The entries come from a sample that favours strong results as a whole.
measured.quantity: hERG current change (%, negative = inhibition) at 10uM (%)
Give a bare numeral; the unit % is implied.

molecule	observed.result
C=C1[C@@H](OC(C)=O)[C@]23C[C@@H]1[C@@H](OC(C)=O)CC2[C@]12C4C[C@H]3[C@H]1N(CC)C[C@]4(C)CC[C@@H]2O (stereo partly shown)	-40.6
Cc1ccc(CNS(=O)(=O)c2cc3c(cc2C)NC(=O)CO3)cc1	-39.8
COc1cc(O)oc1C=Nc1ccccc1	-18.3
COc1ccc(C(=O)n2nc(-c3ccco3)nc2N)cc1	-2.65
COc1ccc(CC(=O)N/N=C/c2cc([N+](=O)[O-])cc(Br)c2O)cc1	6.88
COc1ccc(Cl)cc1NC(=O)CN(C)C(=O)c1ccc2n[nH]nc2c1	-13.8
COc1ccc(NS(=O)(=O)c2cc3c(cc2C)NC(=O)CO3)c(OC)c1	-15.3
COc1ccc(OCc2nc3c4c(ncn3n2)-c2ccccc2CC42CCCC2)cc1	6.66
c1ccc2c(Nc3nc4c(s3)CCCC4)cccc2c1	2.23
COc1ccc(Cl)cc1NC(=O)CN(C)C(=O)c1cccc(-n2cnnn2)c1	-53.6

Query COc1ccc(NC(=O)CN(C)C(=O)c2cn(-c3ccccc3)nc2-c2ccc(Cl)cc2)cc1 yields hERG current change (%, negative = inhibition) at 10uM of 12.1

Input COc1ccc(S(=O)(=O)N2CCCCC2)cc1NC(=O)CN(Cc1ccco1)Cc1ccco1 . Output hERG current change (%, negative = inhibition) at 10uM: -23.7

Briefly, hERG current change (%, negative = inhibition) at 10uM measured for CC(C)(C)OC(=O)NCCCC[C@H](NC(=O)c1[nH]cnc1C(=O)Nc1ccccc1)C(=O)OC(C)(C)C : 15.6
